Biological target: T1, Nrd1 307-491 F342A (Saccharomyces cerevisiae, UniProt P53617 307-491, F342A)
T1 sequence: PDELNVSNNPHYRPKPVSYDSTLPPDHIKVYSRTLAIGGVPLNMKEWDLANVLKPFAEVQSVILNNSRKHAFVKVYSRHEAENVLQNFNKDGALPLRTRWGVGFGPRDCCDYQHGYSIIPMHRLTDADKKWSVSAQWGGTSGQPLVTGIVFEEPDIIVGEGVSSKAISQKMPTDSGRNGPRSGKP
Experiment: fluorescence anisotropy; FA: 10 nM RNA, 50 mM sodium phosphate pH 8, 150 mM NaCl, 10 mM beta-mercaptoethanol, 20 C (protein stock in 300 mM NaCl); NMR: same buffer with 300 mM NaCl, 20
Settings: protein: recombinant; tags: C-terminal His6; label: 5' fluorescein or TAMRA (FA); unlabeled (NMR)
observed-property: pKd
Notebook: values listed as pKd are -log10 of the concentration (mol/L).

Query: Param item = GCGGGGC (ssRNA) ; retrieve measured pKd.
Reply: 4.53
